ASSAYED_SYSTEM: β-CA (MpaCA) from Malassezia pachydermatis (Malassezia pachydermatis)
Sequence (A0A0M8MPA4 1-242): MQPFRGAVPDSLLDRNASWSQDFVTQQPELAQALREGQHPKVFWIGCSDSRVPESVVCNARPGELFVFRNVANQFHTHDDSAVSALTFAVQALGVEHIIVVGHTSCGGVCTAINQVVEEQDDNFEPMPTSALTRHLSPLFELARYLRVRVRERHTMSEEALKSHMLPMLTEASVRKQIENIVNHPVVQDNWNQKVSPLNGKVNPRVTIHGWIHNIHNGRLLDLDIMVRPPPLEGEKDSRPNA
TEST: biochemical
TEST_CONTEXT: recombinant enzyme, stopped-flow CO2 hydration, mean from three assays, errors ±5–10%, 15 min preincubation
Would you mind telling me the reported pKi of each entry?
The meaning of pKi here: minus log10 of the concentration in molar units.

Request - read-out pKi | tested on β-CA (MpaCA) from Malassezia pachydermatis (Malassezia pachydermatis) | compound Nc1cccc(S(N)(=O)=O)c1 [compound 1] 5.70

GET /values?readout=pKi&system=β-CA (MpaCA) from Malassezia pachydermatis (Malassezia pachydermatis)&item= Nc1ccc(S(=O)(=O)Nc2nnc(S(N)(=O)=O)s2)cc1 [compound 20] 6.21

Provide value of pKi for this record tested with β-CA (MpaCA) from Malassezia pachydermatis (Malassezia pachydermatis): Cc1onc(-c2ccccc2)c1-c1ccc(S(N)(=O)=O)cc1 [VLX, Valdecoxib, reference compound] 6.20

Form entry - test system: β-CA (MpaCA) from Malassezia pachydermatis (Malassezia pachydermatis); read-out: pKi; compound: CC1(C)O[C@@H]2[C@@H](CO[C@@]3(COS(N)(=O)=O)OC(C)(C)O[C@@H]23)O1 [TPM, Topiramate, reference compound] 6.32

Provide value of pKi for this record tested with β-CA (MpaCA) from Malassezia pachydermatis (Malassezia pachydermatis): NS(=O)(=O)NCCNc1nonc1C(=NO)Nc1ccc(F)c(Br)c1 [EPA, Epacadostat, reference compound] 6.20

Recall the recorded pKi for O=C1NS(=O)(=O)c2ccccc21 [SAC, Saccharin, reference compound] with β-CA (MpaCA) from Malassezia pachydermatis (Malassezia pachydermatis) and state it. 5.99

Given the entry Nc1nccc(Nc2ccc(S(N)(=O)=O)cc2)n1 [compound 19] , what pKi was observed with β-CA (MpaCA) from Malassezia pachydermatis (Malassezia pachydermatis)? 6.23

Write down the reported pKi of CC(=O)/N=c1/sc(S(N)(=O)=O)nn1C [MZA, Methazolamide, reference compound] , test system: β-CA (MpaCA) from Malassezia pachydermatis (Malassezia pachydermatis). 5.76
